tested on: MDA-MB-231; assay: NCI tumour cell line growth inhibition, 48 h
The source made the active and inactive calls. Rule as the data show it: active = GI50 up to about 1.1 µM and inactive = higher.
Classes used: Yes = active, No = inactive

[[record]]
compound = "Cc1ccc(SCC(CSCCO)OCn2cnc3c2N=C(N)NC32OCCO2)cc1 (configuration not stated)"
label = "No"

[[record]]
compound = "CC(=O)OCC(=O)OC[C@H](OCc1ccccc1)[C@@H]1[C@H](OC(C)=O)C(=O)N1Cc1ccccc1"
label = "No"

[[record]]
compound = "CC(=O)SC(C[N+](=O)[O-])c1ccc2c(c1)OCO2 (configuration not stated)"
label = "No"

[[record]]
compound = "COC(=O)C(=O)C(C(=O)C(=O)Nc1cccc([N+](=O)[O-])c1)c1nc2ccc(Cl)cc2nc1O (configuration not stated)"
label = "No"

[[record]]
compound = "O=C(O)C(Cc1cc(I)c(O)c(I)c1)C1CCCCC1 (configuration not stated)"
label = "No"

[[record]]
compound = "CCOc1ccc(N/C(=C(/C(Cl)=C(/Cl)NCCN)[N+](=O)[O-])n2nnc3ccccc32)cc1"
label = "No"

[[record]]
compound = "S=C(N/N=C/c1ccccn1)N1CCCCC1"
label = "Yes"

[[record]]
compound = "Cc1nc(C(N)=S)sc1/C(CC(=O)C(=O)Nc1cccc2ccc(O)cc12)=N\\NC(=O)c1ccncc1"
label = "No"

[[record]]
compound = "C=C1C(=O)O[C@H]2[C@@H]3O[C@@](C)(CC/C=C(\\C)CCC[C@@H]2C)[C@H](O)C[C@@H]13"
label = "No"

[[record]]
compound = "CN(CCCn1ccnc1[N+](=O)[O-])CCCn1ccnc1[N+](=O)[O-]"
label = "No"

[[record]]
compound = "C[N+]1(CCN[N+]2(C)CCCCC2)CCc2ccccc2C1 (configuration not stated)"
label = "No"

[[record]]
compound = "CC1(C)OC[C@@]2([C@@H]3CC[C@@H](C3)C2(C)C)N1O"
label = "No"


Hey, just so you know, these numbers are from ChEMBL document CHEMBL1201862.
